Molecular target: FXR (CMX-hFXR with CMX-RXRα in CV-1 cells) (Homo sapiens)
Sequence (Q96RI1 1-472 isoform Q96RI1-2): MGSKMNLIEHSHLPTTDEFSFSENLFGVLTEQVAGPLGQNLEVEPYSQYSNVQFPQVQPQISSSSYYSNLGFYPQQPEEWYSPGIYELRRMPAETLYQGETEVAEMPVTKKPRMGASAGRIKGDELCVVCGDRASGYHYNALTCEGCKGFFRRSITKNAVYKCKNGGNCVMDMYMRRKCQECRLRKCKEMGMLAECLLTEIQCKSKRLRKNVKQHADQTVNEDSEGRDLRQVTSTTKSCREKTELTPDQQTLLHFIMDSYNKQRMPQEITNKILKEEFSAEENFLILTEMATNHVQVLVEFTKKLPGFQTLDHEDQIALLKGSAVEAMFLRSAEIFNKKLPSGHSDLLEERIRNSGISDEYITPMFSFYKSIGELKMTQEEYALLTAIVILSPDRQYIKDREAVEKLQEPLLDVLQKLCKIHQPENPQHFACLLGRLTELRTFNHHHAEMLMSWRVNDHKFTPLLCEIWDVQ
Sequence (P19793 1-462 partner): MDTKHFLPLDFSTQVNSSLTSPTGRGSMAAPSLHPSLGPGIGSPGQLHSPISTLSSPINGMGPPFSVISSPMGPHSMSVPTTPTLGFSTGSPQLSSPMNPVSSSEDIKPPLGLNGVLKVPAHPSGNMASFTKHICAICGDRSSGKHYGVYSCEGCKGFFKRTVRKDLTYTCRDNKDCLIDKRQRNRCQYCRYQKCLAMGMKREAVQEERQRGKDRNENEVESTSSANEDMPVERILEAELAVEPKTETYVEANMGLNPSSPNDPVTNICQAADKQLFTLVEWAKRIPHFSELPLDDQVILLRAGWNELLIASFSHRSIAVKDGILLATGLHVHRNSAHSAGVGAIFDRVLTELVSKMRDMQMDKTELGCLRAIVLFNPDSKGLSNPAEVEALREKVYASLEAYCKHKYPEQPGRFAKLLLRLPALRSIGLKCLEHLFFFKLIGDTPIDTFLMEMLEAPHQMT
Test: FXR/ECREx7 co-transfection assay (luciferase reporter)
Conditions: FXR agonism, co-transfection assay
readout: EC50

Quick one: give measured EC50 for CCNc1ccc(C#N)cc1N=C1SC(=C2Sc3ccccc3N2C)C(=O)N1Cc1ccccc1 [Example 32]
~10 nM

Identify the reported EC50 for the following entry. CCNc1ccc(C#N)cc1N=C1SC(=C2SC(C)=C(c3ccccc3)N2C)C(=O)N1Cc1ccccc1 [Example 52]
~56 nM

* * *

Target: GST-FXR-LBD (Homo sapiens, UniProt Q96RI1)
Sequence (Q96RI1 244-472 isoform Q96RI1-2): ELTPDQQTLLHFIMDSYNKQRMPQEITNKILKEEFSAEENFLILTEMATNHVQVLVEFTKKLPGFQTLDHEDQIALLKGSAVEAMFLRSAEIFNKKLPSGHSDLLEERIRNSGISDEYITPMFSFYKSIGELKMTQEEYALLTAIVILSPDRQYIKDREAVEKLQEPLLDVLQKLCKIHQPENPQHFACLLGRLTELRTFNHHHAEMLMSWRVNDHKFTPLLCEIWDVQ
readout: IC50

Please give measured IC50 of the following entry: CCNc1ccc(C#N)cc1N=C1SC(=C2SC(C)=C(c3ccccc3)N2C)C(=O)N1Cc1ccccc1
~42 nM
